assay: BSK_3C_TissueFactor: BioMAP Diversity Plus: 3C Assay for Tissue Factor Biomarker Activity (AID 2282997); conditions: BioMAP 3C HUVEC, tissue factor biomarker readout; actives raise or lower the signal
Active and inactive are the calls of the source. How the source made its calls: active means hit-call score of the fitted dose curve at least 0.9, where 1 is the maximum; inactive means score below 0.9.
Can you answer with just one of these options? label 1 = active, label 0 = inactive

Example entries begin here.
Cn1c(=O)cc(Oc2ccc(F)cc2F)c2cnc(NCC(C)(C)O)nc21
label 1
O=C(NS(=O)(=O)/C=C/c1ccccc1)c1ccc(F)cc1Cl
label 0
CN(C)c1ccc(N=NS(=O)(=O)O)cc1
label 1
CCCC(=O)OCC
label 0
CCOCCOCCOCCO
label 0
O=C(O)c1cccc(N(Cc2cccnc2)c2ccc(OC(F)F)c(OC(F)F)c2)c1
label 1

Query block: Name the outcome recorded for C1N2CN3CN1CN(C2)C3 in the assay.
Result block: label 0

Query block: Dear colleague, could you share the recorded outcome for CCCCCCCCCCCCCCCO when you have a moment?
Result block: label 0

Query block: Outcome logged for C=CC(=C)CCC=C(C)C in this assay:
Result block: label 0
